- Tested on: NCI-H460
- assay-info: NCI tumour cell line growth inhibition, 48 h
Activity calls are given as the source filed them. No stated cut-off is given here; in the data, active = GI50 up to about 1.1 µM and inactive = higher.
Below, each entry is listed alongside its reported GI50.

{"columns": ["compound", "GI50"],
 "data": [
  ["NC(CCCC(N)P(=O)(O)c1ccccc1)P(=O)(O)c1ccccc1 (stereo unspecified)", "> 261 µM (inactive)"],
  ["Nc1ccn(C2(CO)C=C(CO)C(O)C2O)c(=O)n1 (stereo unspecified)", "> 25.8 µM (inactive)"],
  ["CCOC(=O)c1nc2ccc(Cl)cc2c2c1CCO2", "> 100 µM (inactive)"],
  ["COC(=O)C1[C@@H](C(=O)OC)C12C=Cc1ccccc1C=C2 (stereo partly specified)", "> 100 µM (inactive)"],
  ["O=C(NCc1ccccc1Cl)c1c(O)c2ccccc2[nH]c1=O", "18.7 µM (inactive)"],
  ["COc1ccc2c(c1)N=C(N)n1c(nc3ccccc31)S2", "8.18 µM (inactive)"]
]}
